- target-or-system: T1, EsCas13d, nuclease-dead (Eubacterium siraeum, UniProt B0MS50, R295A;H300A;R849A;H854A)
- T1 sequence: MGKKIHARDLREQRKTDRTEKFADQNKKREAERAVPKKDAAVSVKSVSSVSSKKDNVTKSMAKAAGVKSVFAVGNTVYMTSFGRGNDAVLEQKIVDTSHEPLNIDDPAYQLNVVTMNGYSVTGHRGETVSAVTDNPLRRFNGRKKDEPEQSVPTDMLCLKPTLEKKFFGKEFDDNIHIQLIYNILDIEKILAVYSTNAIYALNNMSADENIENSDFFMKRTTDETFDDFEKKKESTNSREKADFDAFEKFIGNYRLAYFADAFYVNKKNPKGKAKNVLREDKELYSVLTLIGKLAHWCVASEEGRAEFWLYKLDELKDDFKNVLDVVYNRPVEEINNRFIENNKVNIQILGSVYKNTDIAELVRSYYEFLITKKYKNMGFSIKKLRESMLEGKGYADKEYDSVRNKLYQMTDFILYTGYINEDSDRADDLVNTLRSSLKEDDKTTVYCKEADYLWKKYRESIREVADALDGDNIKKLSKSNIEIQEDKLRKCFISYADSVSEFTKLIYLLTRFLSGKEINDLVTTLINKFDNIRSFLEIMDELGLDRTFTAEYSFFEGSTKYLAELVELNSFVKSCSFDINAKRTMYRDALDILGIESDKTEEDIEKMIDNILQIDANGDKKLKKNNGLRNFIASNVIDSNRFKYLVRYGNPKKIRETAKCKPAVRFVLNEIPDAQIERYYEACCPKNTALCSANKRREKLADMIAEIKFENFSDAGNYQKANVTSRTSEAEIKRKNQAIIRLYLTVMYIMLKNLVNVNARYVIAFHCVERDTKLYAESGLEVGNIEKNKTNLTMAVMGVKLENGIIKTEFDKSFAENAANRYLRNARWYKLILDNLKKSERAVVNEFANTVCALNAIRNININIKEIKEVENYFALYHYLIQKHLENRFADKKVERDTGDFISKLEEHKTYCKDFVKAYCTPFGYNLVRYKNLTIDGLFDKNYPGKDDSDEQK
- assay: crRNA (strand 1, pre-loaded); Mg2+; 40 mM Tris-HCl pH 7.5, 150 mM NaCl, 6 mM MgCl2, 1 mM DTT, 0.1% Tween-20, 0.2 mg/ml BSA; 25 C; 10 min per concentration, then washed
- experimental-parameters: tags: His6-TwinStrep-SUMO cleaved; N-terminal SNAP kept (SNAP-Surface 488); label: 3' end held by stalled T7 RNA polymerase
Please use t for Kd under 10 nM and f for everything else, ties included.

binder="target 2 MT 5'PFS GGC 3'PFS AGU (mixed) RNA 1: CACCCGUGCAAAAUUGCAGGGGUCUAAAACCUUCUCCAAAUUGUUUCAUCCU RNA 2: GGGAAUGGAUCCACAUCUACGAAUUCGGCAGGAUGAAACAAUUUGGAGAAGAGUAGAUCGGAAGAGCACACGU" label_class=f
binder="target 2 MT 5'PFS UAG 3'PFS UGU (mixed) RNA 1: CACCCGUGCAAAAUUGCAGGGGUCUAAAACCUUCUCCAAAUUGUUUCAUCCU RNA 2: GGGAAUGGAUCCACAUCUACGAAUUCUAGAGGAUGAAACAAUUUGGAGAAGUGUAGAUCGGAAGAGCACACGU" label_class=t
binder="target 3 G4U,A12U (mixed) RNA 1: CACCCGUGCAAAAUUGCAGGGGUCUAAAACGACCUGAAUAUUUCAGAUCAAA RNA 2: GGGAAUGGAUCCACAUCUACGAAUUCGUUUUUGAUCUGAUAUAUUCAUGUCUGCAGAUCGGAAGAGCACACGU" label_class=f
binder="target 1 A1C,A9U (mixed) RNA 1: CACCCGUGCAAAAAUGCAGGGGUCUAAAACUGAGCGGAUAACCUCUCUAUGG RNA 2: GGGAAUGGAUCCACAUCUACGAAUUCGUACCAUAGAGAGGUUUUCCGCUCCCCGAGAUCGGAAGAGCACACGU" label_class=f
binder="target 1 insC 3' of 14,insG 3' of 9 (mixed) RNA 1: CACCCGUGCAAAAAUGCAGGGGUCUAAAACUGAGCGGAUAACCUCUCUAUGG RNA 2: GGGAAUGGAUCCACAUCUACGAAUUCGUACCAUAGAGACGGUUAGUCCGCUCACCGAGAUCGGAAGAGCACACGU" label_class=f
binder="target 1 insA 3' of 7,insU 3' of 7 (mixed) RNA 1: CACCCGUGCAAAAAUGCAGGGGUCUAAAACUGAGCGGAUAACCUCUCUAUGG RNA 2: GGGAAUGGAUCCACAUCUACGAAUUCGUACCAUAGAGAGGUUAUCAUCGCUCACCGAGAUCGGAAGAGCACACGU" label_class=t

### Prompt Given target 1 C4A,U19G (mixed) RNA 1: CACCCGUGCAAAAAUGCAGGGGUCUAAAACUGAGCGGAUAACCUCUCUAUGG RNA 2: GGGAAUGGAUCCACAUCUACGAAUUCGUACCAGAGAGAGGUUAUCCGAUCACCGAGAUCGGAAGAGCACACGU , is recorded Kd strictly lower than 10 nM?
### Response f

### Prompt Again, but for target 1 C4G,C6G (mixed) RNA 1: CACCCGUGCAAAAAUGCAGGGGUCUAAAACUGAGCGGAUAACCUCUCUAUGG RNA 2: GGGAAUGGAUCCACAUCUACGAAUUCGUACCAUAGAGAGGUUAUCGGGUCACCGAGAUCGGAAGAGCACACGU
### Response t

### Prompt Now consider target 1 MT 5'PFS GGG 3'PFS GUG (mixed) RNA 1: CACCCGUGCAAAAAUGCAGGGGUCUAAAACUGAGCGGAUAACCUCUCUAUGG RNA 2: GGGAAUGGAUCCACAUCUACGAAUUCGGGCCAUAGAGAGGUUAUCCGCUCAGUGAGAUCGGAAGAGCACACGU and answer again.
### Response t

### Prompt Further, for target 3 insC 3' of 3,insU 3' of 1 (mixed) RNA 1: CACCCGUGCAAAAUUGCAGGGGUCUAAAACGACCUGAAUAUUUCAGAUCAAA RNA 2: GGGAAUGGAUCCACAUCUACGAAUUCGUUUUUGAUCUGAAAUAUUCAGGCUCUUGCAGAUCGGAAGAGCACACGU ?
### Response f

### Prompt Could you do the same for target 1 G13A,U19C (mixed) RNA 1: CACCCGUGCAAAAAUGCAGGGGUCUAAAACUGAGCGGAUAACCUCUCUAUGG RNA 2: GGGAAUGGAUCCACAUCUACGAAUUCGUACCACAGAGAAGUUAUCCGCUCACCGAGAUCGGAAGAGCACACGU , please?
### Response f

### Prompt Same for target 1 insA 3' of 21,insG 3' of 16 (mixed) RNA 1: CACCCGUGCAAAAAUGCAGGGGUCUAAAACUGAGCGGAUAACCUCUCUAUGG RNA 2: GGGAAUGGAUCCACAUCUACGAAUUCGUACCAAUAGAGGAGGUUAUCCGCUCACCGAGAUCGGAAGAGCACACGU
### Response f
